# target.system: β1 integrin (Homo sapiens, UniProt P05556+P17301)
# Construct: endogenous in cells; host or cells: RKO (A4); RKO, KM12SM, MDA-MB-468 and BLM (A9)
# Sequence (P05556 21-798): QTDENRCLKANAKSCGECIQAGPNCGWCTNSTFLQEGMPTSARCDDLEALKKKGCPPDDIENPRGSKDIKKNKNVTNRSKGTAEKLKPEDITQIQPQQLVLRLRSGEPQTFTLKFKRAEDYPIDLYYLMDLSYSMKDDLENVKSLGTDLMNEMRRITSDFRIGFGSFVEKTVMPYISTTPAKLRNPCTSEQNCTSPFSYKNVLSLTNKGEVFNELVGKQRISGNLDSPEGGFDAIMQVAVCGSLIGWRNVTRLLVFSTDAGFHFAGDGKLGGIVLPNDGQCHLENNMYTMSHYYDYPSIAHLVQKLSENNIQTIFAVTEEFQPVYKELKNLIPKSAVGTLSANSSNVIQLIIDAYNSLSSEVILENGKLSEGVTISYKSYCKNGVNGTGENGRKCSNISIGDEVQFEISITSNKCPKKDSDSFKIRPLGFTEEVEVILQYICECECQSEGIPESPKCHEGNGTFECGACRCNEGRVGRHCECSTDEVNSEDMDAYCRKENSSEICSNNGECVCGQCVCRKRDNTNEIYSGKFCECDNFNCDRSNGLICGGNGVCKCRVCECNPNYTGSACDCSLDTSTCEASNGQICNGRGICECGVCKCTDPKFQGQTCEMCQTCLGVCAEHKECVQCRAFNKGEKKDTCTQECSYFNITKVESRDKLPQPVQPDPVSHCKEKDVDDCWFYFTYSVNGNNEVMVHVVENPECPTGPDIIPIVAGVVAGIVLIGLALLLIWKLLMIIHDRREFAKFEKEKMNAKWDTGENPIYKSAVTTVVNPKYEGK
# Sequence (P17301 30-1181): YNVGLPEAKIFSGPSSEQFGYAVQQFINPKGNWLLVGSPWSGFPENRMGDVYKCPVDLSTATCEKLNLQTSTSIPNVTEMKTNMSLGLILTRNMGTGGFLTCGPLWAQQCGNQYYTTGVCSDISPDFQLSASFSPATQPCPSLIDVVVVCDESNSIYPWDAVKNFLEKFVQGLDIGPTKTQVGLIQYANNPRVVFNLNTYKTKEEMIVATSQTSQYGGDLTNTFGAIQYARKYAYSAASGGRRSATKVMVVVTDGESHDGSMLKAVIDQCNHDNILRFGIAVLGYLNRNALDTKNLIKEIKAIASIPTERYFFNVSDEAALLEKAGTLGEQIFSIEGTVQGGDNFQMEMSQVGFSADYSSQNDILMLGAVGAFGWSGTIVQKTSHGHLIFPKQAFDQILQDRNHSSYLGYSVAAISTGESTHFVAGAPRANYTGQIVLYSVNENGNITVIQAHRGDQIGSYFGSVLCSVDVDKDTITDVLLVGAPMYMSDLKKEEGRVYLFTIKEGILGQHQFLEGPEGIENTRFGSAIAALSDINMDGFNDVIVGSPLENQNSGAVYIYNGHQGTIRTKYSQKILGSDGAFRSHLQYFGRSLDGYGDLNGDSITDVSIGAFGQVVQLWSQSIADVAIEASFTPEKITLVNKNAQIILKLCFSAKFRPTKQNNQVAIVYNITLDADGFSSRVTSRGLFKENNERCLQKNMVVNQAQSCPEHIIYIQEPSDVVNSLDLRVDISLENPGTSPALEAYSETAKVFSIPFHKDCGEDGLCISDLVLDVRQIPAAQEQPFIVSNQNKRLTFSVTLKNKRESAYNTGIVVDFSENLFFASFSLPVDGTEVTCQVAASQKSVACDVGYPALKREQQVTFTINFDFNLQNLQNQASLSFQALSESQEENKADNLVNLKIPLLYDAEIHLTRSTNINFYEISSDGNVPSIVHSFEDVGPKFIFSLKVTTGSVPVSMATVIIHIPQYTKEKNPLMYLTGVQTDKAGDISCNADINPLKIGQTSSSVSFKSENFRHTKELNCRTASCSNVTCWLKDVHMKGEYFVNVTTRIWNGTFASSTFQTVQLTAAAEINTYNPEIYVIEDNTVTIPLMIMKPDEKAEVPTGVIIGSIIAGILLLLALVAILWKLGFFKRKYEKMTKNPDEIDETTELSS
# assay.details: β1 integrin activation by CDH17 proteins or cadherin RGD peptides (HUTS21 flow cytometry)
# Format: cell-based
# run.parameters: 9 aa peptides; MDA-MB-468, BLM and RKO cells, FIG. 16
recorded.endpoint: conformational change of β1-integrin into a high affinity conformation

sequence.chain	target.system	result
RAIRGDTEG (listed as Homo sapiens) [SEQ ID NO: 31, reference compound]	β1 integrin (Homo sapiens, UniProt P05556+P17301)	not
